Target: Mitogen-activated protein kinase 1 (Homo sapiens)
Assay: Inhibition of ERK2 at 30 uM by microfluidic mobility shift assay

Smiles repr: Cn1nc(N)c2c(=O)[nH]c(-c3ccccc3)cc21
inhibition / %: 13

Smiles repr: Nc1n[nH]c2cc(-c3ccccn3)[nH]c(=O)c12
inhibition / %: 12

Smiles repr: Cc1cc2c(c(N)nn2C)c(N2CCCCC2)n1
inhibition / %: 1

Smiles repr: COC(=O)CCc1c(C)[nH]c(=O)c2c(N)nn(C)c12
inhibition / %: 5

Smiles repr: CN1CCN(c2ccc(-c3cc4[nH]nc(N)c4c(=O)[nH]3)cc2)CC1
inhibition / %: -2

Smiles repr: CN1CCN(c2ccc(-c3cc4nn(-c5ccccc5)c(N)c4c(=O)[nH]3)cc2)CC1
inhibition / %: 7

Smiles repr: Cc1cc2[nH]nc(N)c2cn1
inhibition / %: 4

Smiles repr: CC(=O)Nc1nn(C)c2cc(-c3ccc(N4CCN(C)CC4)cc3)[nH]c(=O)c12
inhibition / %: 4

Smiles repr: COCCNc1nc(C)cc2c1c(N)nn2C
inhibition / %: 8

Smiles repr: Cc1cc2[nH]nc(N)c2c(N2CCCCC2)n1
inhibition / %: 6

Smiles repr: Cc1cc2[nH]ncc2c(=O)[nH]1
inhibition / %: 0

Smiles repr: Nc1c2c(=O)[nH]c(-c3ccccn3)cc2nn1-c1ccccc1
inhibition / %: 6

Smiles repr: Nc1c2c(=O)[nH]c(-c3ccccc3)cc2nn1-c1ccccc1
inhibition / %: 12

====

Target: Ribosomal protein S6 kinase alpha-5 (Homo sapiens) (UniProt O75582)
Sequence (O75582 whole entry, looked up): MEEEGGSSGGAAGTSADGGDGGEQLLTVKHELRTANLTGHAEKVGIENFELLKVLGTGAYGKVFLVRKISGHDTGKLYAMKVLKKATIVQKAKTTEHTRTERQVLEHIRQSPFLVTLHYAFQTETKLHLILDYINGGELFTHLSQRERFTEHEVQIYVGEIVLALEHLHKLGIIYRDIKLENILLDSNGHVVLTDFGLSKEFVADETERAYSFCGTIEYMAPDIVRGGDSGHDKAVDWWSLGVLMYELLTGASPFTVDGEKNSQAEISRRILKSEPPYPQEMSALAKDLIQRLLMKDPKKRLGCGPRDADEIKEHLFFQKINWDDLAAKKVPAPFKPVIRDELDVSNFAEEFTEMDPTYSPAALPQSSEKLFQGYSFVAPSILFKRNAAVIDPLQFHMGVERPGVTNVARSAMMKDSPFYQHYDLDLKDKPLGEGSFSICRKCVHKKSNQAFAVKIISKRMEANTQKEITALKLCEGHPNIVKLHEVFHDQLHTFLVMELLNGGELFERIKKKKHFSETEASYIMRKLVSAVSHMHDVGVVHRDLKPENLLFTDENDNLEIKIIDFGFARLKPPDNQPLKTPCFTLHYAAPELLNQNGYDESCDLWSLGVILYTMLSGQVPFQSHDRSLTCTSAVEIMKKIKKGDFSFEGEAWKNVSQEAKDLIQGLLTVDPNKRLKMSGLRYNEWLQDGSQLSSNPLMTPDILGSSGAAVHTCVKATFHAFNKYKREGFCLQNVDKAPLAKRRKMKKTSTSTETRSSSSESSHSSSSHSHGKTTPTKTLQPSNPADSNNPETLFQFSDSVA
Assay: Inhibition of MSK1 at 30 uM by microfluidic mobility shift assay

Smiles repr: Nc1n[nH]c2cc(-c3ccccn3)[nH]c(=O)c12
inhibition: 35%

Smiles repr: Cc1cc2c(c(NS(C)(=O)=O)nn2C)c(=O)[nH]1
inhibition: 4%

Smiles repr: Cc1cc2nc(-c3ccccc3)nc(N)c2c(=O)[nH]1
inhibition: 15%

Smiles repr: Cn1nc(N)c2c(=O)[nH]c(-c3ccccc3)cc21
inhibition: 9%

Smiles repr: Cc1cc2[nH]nc(N)c2c(=O)[nH]1
inhibition: 56%

Smiles repr: COc1ccc(-c2cc3c(c(N)nn3C)c(=O)[nH]2)cc1
inhibition: 9%

Smiles repr: Nc1n[nH]c2cc(-c3ccc(N4CCOCC4)cc3)[nH]c(=O)c12
inhibition: 39%

Smiles repr: CC(=O)Nc1nn(C)c2cc(-c3ccc(N4CCN(C)CC4)cc3)[nH]c(=O)c12
inhibition: 0%

Smiles repr: Cn1nc(N)c2cnc(-c3ccccc3)cc21
inhibition: 4%

Smiles repr: Nc1c2c(=O)[nH]c(-c3ccccc3)cc2nn1-c1ccccn1
inhibition: -4%

Smiles repr: Cc1cc2[nH]ncc2c(=O)[nH]1
inhibition: 2%

Smiles repr: Cc1cc2c(c(N)nn2C)c(N2CCOCC2)n1
inhibition: 4%

Smiles repr: Cc1cc2[nH]nc(N)c2cn1
inhibition: 13%

====

Target: Tyrosine-protein kinase Fyn (Homo sapiens, UniProt P06241)
Sequence (P06241 2-537 limits assumed): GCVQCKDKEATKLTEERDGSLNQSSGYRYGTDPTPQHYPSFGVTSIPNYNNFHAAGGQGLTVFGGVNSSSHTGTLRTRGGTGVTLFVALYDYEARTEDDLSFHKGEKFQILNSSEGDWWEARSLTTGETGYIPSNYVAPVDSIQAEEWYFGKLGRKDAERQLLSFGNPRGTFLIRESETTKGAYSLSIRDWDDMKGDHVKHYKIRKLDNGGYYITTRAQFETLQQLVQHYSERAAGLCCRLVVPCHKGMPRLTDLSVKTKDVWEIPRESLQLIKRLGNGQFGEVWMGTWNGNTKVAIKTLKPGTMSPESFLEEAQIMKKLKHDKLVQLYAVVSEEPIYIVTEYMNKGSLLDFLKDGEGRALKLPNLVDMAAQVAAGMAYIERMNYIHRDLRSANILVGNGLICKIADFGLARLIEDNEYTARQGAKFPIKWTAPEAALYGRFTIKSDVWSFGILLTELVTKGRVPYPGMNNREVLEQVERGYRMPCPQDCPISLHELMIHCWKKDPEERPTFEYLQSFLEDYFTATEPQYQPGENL
Assay: Inhibition of FYN at 30 uM by microfluidic mobility shift assay

Smiles repr: Cc1cc2c(c(N)nn2C)c(=O)[nH]1
Unit info: %
inhibition: -8
--
Smiles repr: Cc1cc2c(c(N)nn2C)c(N2CCCCC2)n1
Unit info: %
inhibition: 8
--
Smiles repr: COC(=O)CCc1c(C)[nH]c(=O)c2c(N)nn(C)c12
Unit info: %
inhibition: 7
--
Smiles repr: Cc1cc2[nH]nc(N)c2c(N2CCOCC2)n1
Unit info: %
inhibition: 43
--
Smiles repr: Cc1[nH]c(=O)c2c(N)n(-c3ccccc3)nc2c1-c1ccccc1
Unit info: %
inhibition: 62
--
Smiles repr: Cc1cc2c(c(NS(C)(=O)=O)nn2C)c(=O)[nH]1
Unit info: %
inhibition: 11
--
Smiles repr: Nc1n[nH]c2cc(-c3ccncc3)[nH]c(=O)c12
Unit info: %
inhibition: 28
--
Smiles repr: Cn1nc(N)c2cnc(-c3ccccc3)cc21
Unit info: %
inhibition: 8
--
Smiles repr: Nc1n[nH]c2cc(-c3cccs3)[nH]c(=O)c12
Unit info: %
inhibition: 69

====

Assay: Aqueous solubility of the compound by HPLC analysis
Format: physicochemical
Details: water
The following molecules are listed with their measured solubility values.
Measure name: solubility

Smiles repr: O=C1Nc2ccccc2/C1=C1/Nc2ccccc2C1=O
Measure name: solubility
Data value: < 1 µg/mL
--
Smiles repr: Nc1n[nH]c2cc(C3CCNCC3)[nH]c(=O)c12
Measure name: solubility
Data value: 2340 µg/mL
--
Smiles repr: Cc1cc2c(c(NC(=O)Nc3ccccc3)nn2C)c(=O)[nH]1
Measure name: solubility
Data value: < 1 µg/mL
--
Smiles repr: Cn1nc(N)c2c(=O)[nH]c(C3CCNCC3)cc21
Measure name: solubility
Data value: > 15000 µg/mL

====

Target: Serine/threonine-protein kinase D2 (Homo sapiens) (UniProt Q9BZL6)
Sequence (Q9BZL6 whole entry): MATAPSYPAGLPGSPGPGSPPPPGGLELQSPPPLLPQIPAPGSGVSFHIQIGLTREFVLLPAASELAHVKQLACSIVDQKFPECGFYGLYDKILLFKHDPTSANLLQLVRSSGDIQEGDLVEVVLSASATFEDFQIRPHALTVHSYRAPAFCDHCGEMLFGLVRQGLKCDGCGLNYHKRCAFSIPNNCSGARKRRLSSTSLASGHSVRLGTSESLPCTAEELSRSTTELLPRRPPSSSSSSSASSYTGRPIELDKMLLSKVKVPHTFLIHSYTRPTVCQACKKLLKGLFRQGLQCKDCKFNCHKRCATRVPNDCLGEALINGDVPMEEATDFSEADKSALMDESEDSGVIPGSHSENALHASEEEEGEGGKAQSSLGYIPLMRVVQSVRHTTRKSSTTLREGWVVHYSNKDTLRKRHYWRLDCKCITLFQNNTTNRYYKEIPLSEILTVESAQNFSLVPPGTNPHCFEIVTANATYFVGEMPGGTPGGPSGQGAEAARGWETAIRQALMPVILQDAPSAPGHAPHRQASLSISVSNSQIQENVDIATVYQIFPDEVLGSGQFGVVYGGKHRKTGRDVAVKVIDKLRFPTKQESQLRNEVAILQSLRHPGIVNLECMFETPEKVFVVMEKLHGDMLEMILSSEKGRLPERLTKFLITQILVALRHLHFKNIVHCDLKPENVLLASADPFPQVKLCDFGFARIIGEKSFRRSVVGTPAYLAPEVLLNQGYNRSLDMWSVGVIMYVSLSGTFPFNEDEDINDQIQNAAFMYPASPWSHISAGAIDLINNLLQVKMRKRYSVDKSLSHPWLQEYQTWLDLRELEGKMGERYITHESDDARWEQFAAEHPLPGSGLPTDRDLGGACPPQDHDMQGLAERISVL
Assay: Inhibition of PKD2 at 30 uM by microfluidic mobility shift assay
Measure name: inhibition (%)

Smiles repr: COc1ccccc1-c1cc2nn(-c3ccccc3)c(N)c2c(=O)[nH]1
Measure name: inhibition
Data value: 20

Smiles repr: Nc1n[nH]c2cc(-c3cccnc3)[nH]c(=O)c12
Measure name: inhibition
Data value: 26

Smiles repr: Cc1cc2c(c(NC(=O)Nc3ccccc3)nn2C)c(=O)[nH]1
Measure name: inhibition
Data value: -4

Smiles repr: Cc1cc2nn(-c3ccccc3)c(N)c2c(=O)[nH]1
Measure name: inhibition
Data value: -1

Smiles repr: CN1CCN(c2ccc(-c3cc4[nH]nc(N)c4c(=O)[nH]3)cc2)CC1
Measure name: inhibition
Data value: 15

Smiles repr: CC(C)(C)c1cc2nn(-c3ccccc3)c(N)c2c(=O)[nH]1
Measure name: inhibition
Data value: 15

Smiles repr: COc1ccc(-c2cc3c(c(N)nn3C)c(=O)[nH]2)cc1
Measure name: inhibition
Data value: 36

Smiles repr: CN1CCN(c2ccc(-c3cc4c(c(N)nn4C)c(=O)[nH]3)cc2)CC1
Measure name: inhibition
Data value: 34

Smiles repr: COc1ccc(-c2c(C)[nH]c(=O)c3c(N)nn(C)c23)cc1
Measure name: inhibition
Data value: 21

Smiles repr: CC(=O)Nc1nn(C)c2cc(-c3ccccc3)[nH]c(=O)c12
Measure name: inhibition
Data value: 9

Smiles repr: Cc1cc2c(c(N)nn2C)c(N2CC[C@H](O)C2)n1
Measure name: inhibition
Data value: 8

Smiles repr: CC(=O)Nc1nn(C)c2cc(-c3ccc(N4CCN(C)CC4)cc3)[nH]c(=O)c12
Measure name: inhibition
Data value: 13

Smiles repr: Cc1cc2c(cn1)c(N)nn2C
Measure name: inhibition
Data value: -3

Smiles repr: Nc1n[nH]c2cc(-c3cccs3)[nH]c(=O)c12
Measure name: inhibition
Data value: 5

Smiles repr: Nc1c2c(=O)[nH]c(-c3ccccc3)cc2nn1-c1ccccn1
Measure name: inhibition
Data value: 16

Smiles repr: COc1ccc(S(=O)(=O)Nc2nn(C)c3cc(C)[nH]c(=O)c23)c(OC)c1
Measure name: inhibition
Data value: 14

Smiles repr: Cc1cc2nc(N)nc(N)c2c(=O)[nH]1
Measure name: inhibition
Data value: 8

Smiles repr: Cc1cc2c(c(N)nn2C)c(N2CCCCC2)n1
Measure name: inhibition
Data value: 16

Smiles repr: Cc1cc2[nH]nc(N)c2cn1
Measure name: inhibition
Data value: 25

Smiles repr: Nc1n[nH]c2cc(-c3ccncc3)[nH]c(=O)c12
Measure name: inhibition
Data value: 29

Smiles repr: Nc1n[nH]c2cc(-c3ccc(N4CCOCC4)cc3)[nH]c(=O)c12
Measure name: inhibition
Data value: 15

Smiles repr: Cc1nc(N)c2c(=O)[nH]c(C)cc2n1
Measure name: inhibition
Data value: 6

Smiles repr: COc1ccc(-c2cc3nn(-c4ccccc4)c(N)c3c(=O)[nH]2)cc1
Measure name: inhibition
Data value: 28

Smiles repr: Nc1c2c(=O)[nH]c(-c3ccccn3)cc2nn1-c1ccccc1
Measure name: inhibition
Data value: 15

Smiles repr: Cc1cc2[nH]nc(N)c2c(N2CCCCC2)n1
Measure name: inhibition
Data value: 14

Smiles repr: Cn1nc(N)c2c(=O)[nH]c(-c3ccccc3)cc21
Measure name: inhibition
Data value: 14

Smiles repr: Cn1nc2c3c(nc(-c4ccccc4)cc31)NCC(=O)N2
Measure name: inhibition
Data value: 17

Smiles repr: Nc1c2c(=O)[nH]c(-c3ccccc3)cc2nn1-c1ccccc1
Measure name: inhibition
Data value: 23

Smiles repr: COCCNc1nc(C)cc2nn(-c3ccccc3)c(N)c12
Measure name: inhibition
Data value: -1

Smiles repr: Nc1n[nH]c2cc(-c3ccccn3)[nH]c(=O)c12
Measure name: inhibition
Data value: 33

Smiles repr: Nc1n[nH]c2cc(CC3CCNCC3)[nH]c(=O)c12
Measure name: inhibition
Data value: -6

Smiles repr: Cc1cc2c(c(NS(C)(=O)=O)nn2C)c(=O)[nH]1
Measure name: inhibition
Data value: 8

Smiles repr: Cc1cc2c(c(N)nn2C)c(=O)[nH]1
Measure name: inhibition
Data value: 5

Smiles repr: Cc1cc2nc(-c3ccccc3)nc(N)c2c(=O)[nH]1
Measure name: inhibition
Data value: 5

Smiles repr: Nc1n[nH]c2c3c([nH]c(=O)c12)CCCC3
Measure name: inhibition
Data value: -7

Smiles repr: Cc1cc2[nH]nc(N)c2c(=O)[nH]1
Measure name: inhibition
Data value: -1

Smiles repr: Cn1nc(N)c2cnc(-c3ccccc3)cc21
Measure name: inhibition
Data value: 5

Smiles repr: Cc1[nH]c(=O)c2c(N)n(-c3ccccc3)nc2c1-c1ccccc1
Measure name: inhibition
Data value: -3
